test: solvent given as SMILES; conditions: in CN1CCCC1=O
attributeMeasured: solvation free energy, 298 K (kcal/mol)
Write the value in kcal/mol as a bare number.

Previously resolved entries follow.
CCOCC
-2.77
CC(=O)CC(C)C
-5.14

Form field solvation free energy, 298 K, entry `CCO` : -5.09

Form field solvation free energy, 298 K, entry `C1=CCCCCCC1` : -4.91

Form field solvation free energy, 298 K, entry `CCCCC1CCCCC1` : -5.09

Form field solvation free energy, 298 K, entry `C1CCCCCCC1` : -4.77

Form field solvation free energy, 298 K, entry `C=CC(C)C` : -2.03

Form field solvation free energy, 298 K, entry `CCCC(C)(C)C` : -2.66

Form field solvation free energy, 298 K, entry `CC(C)CCC(C)C` : -3.42

Form field solvation free energy, 298 K, entry `c1ccc2ccccc2c1` : -8.08

----------
test: solvent given as SMILES; settings: in CCC(C)O
Listed here are compounds together with their documented solvation free energy, 298 K.
Write the value in kcal/mol as a bare number.

Previously resolved entries follow.
Brc1ccc(Br)cc1
-6.94
c1ccc(-c2ccccc2)cc1
-8.19
O=C(O)c1ccc(Cl)c([N+](=O)[O-])c1
-13.2

Form field solvation free energy, 298 K, entry `CCc1ccc2c(c1)C(=O)c1ccccc1C2=O` : -12.3

----------
assay: solvent given as SMILES; settings: in Cc1ccccn1
Listed here are compounds together with their documented solvation free energy, 298 K.
Write the value in kcal/mol as a bare number.

Previously resolved entries follow.
CCO
-4.97
C[N+](=O)[O-]
-4.88
CCCCCCC
-4.16
CC(C)CCC(C)C
-4.33

Next up:
Form field solvation free energy, 298 K, entry `CCCCCC` : -3.5

----------
assay: solvent given as SMILES; settings: in CC(C)CCO
attributeMeasured: solvation free energy, 298 K (kcal/mol)
Write the value in kcal/mol as a bare number.

Previously resolved entries follow.
O=S(=O)(c1ccccc1)c1ccccc1
-13.1
CCCCC
-2.82
C=CC
-1.31

Next up:
Form field solvation free energy, 298 K, entry `O=C(O)c1cc([N+](=O)[O-])ccc1Cl` : -12.8

----------
assay: solvent given as SMILES; conditions: in CCCO
I would appreciate it if you labelled entries YES when solvation free energy, 298 K is -5 kcal/mol or higher, otherwise NO.

CCC(C)C(=O)OC1CC(C)C=C2C=CC(C)C(CCC3CC(O)CC(=O)O3)C21 (stereo unspecified)
NO
CCCCCCC
YES

Hi, just wondering whether `CCI` shows solvation free energy, 298 K of -5 kcal/mol or higher.
YES

Hi, just wondering whether `O=C(O)c1cccc([N+](=O)[O-])c1` shows solvation free energy, 298 K of -5 kcal/mol or higher.
NO

Hi, just wondering whether `O=S(=O)(c1ccccc1)c1ccccc1` shows solvation free energy, 298 K of -5 kcal/mol or higher.
NO

Hi, just wondering whether `CCCCCCCC` shows solvation free energy, 298 K of -5 kcal/mol or higher.
YES

Hi, just wondering whether `O=C(O)c1cccc([N+](=O)[O-])c1C(=O)O` shows solvation free energy, 298 K of -5 kcal/mol or higher.
NO

Hi, just wondering whether `C=C(C)C` shows solvation free energy, 298 K of -5 kcal/mol or higher.
YES

Hi, just wondering whether `C=CC` shows solvation free energy, 298 K of -5 kcal/mol or higher.
YES

Hi, just wondering whether `c1ccc2c(c1)Sc1ccccc1S2` shows solvation free energy, 298 K of -5 kcal/mol or higher.
NO

Hi, just wondering whether `CC(Cl)(Cl)Cl` shows solvation free energy, 298 K of -5 kcal/mol or higher.
YES

// provenance: the CombiSolv-Exp solvation set (Vermeire and Green 2021)
